target: RelB (Homo sapiens); test: TransAM NF-κB family DNA binding ELISA, RelB; format: biochemical
Sequence (Q01201 whole entry): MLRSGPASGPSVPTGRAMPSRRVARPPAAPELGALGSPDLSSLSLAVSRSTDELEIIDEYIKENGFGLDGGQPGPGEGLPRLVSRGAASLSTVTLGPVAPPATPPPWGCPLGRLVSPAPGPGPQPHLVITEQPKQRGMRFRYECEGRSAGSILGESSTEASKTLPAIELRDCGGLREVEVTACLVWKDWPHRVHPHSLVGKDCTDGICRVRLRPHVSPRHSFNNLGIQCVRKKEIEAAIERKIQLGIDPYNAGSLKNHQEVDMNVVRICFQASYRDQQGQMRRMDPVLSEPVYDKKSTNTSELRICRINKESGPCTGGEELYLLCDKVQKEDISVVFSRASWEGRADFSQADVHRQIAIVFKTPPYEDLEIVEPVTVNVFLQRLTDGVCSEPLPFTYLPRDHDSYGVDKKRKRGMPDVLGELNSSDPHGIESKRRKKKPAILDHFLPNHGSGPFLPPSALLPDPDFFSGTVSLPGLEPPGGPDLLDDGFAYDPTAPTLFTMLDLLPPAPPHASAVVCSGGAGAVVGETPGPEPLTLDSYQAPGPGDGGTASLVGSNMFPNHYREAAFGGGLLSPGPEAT
Measured Attribute: inhibition at 5 µM (%)

| Compound | inhibition at 5 µM (%) |
| --- | --- |
| COc1ccc(C(=O)NC2=CC(=O)C3OC3C2O)c(O)c1 (racemic) | 17 |
| Cc1ccc(C(=O)NC2=CC(=O)C3OC3C2O)c(O)c1 (racemic) | 10 |
| O=C(NC1=CC(=O)C2OC2C1O)c1cc2ccccc2cc1O (racemic) | 6 |

(I) O=C(NC1=CC(=O)C2OC2C1O)c1cccc(Cl)c1O (racemic)
(II) Cc1cccc(C(=O)NC2=CC(=O)C3OC3C2O)c1O (racemic)
(III) O=C(NC1=CC(=O)C2OC2C1O)c1cc(Br)ccc1O (racemic)
Hello, I need these entries ordered by inhibition at 5 µM, highest reading first. Thanks! Would you mind listing the labels in the order asked for?
III, I, II

(1) O=C(NC1=CC(=O)C2OC2C1O)c1ccc(Cl)cc1O (racemic)
(2) O=C(NC1=CC(=O)C2OC2C1O)c1ccc(C(F)(F)F)cc1O (racemic)
Looking at recorded values for inhibition at 5 µM, does 1 or 2 come in lower? In your reply, give the label of the chosen option.
2
